These data points were gathered from patent US10597674B2.

Test system: E. coli cells expressing an HPPD polypeptide
testDetails: Brown color bioassay in liquid culture, residual brown color formation (BCF), OD440 after 96 hours
Format: cell-based
experimentalParameters: brown color formation with Cmpd. 1 (1000 μM) relative to without, after 96 hours
observedProperty: Residual BCF OD440nm [%] (%)
One number for each entry, in %.

Value of Residual BCF OD440nm [%] reported for the molecule 46 (protein, mutant HPPD polypeptide) MADLYENPMGLMGFEFIEFASPTPGTLEPIFEIMGFTKVATHRSKNVHLYRQGEINLILNNEPNSIASYFAAEHGPSVCGMAFRVKDSQKAYNRALELGAQPIHIDTGPMELNLPAIKGIGGAPLYLIDRFGEGSSIYDIDFVYLEGVERNPVGAGLKVIDHLTHNVYRGRMVYWANFYEKLFNFREARYFDIKGEYTGLTSKAMSAPDGMIRIPLNEESSKGAGQIEEFLMQFNGEGIQHVAFLTDDLVKTWDALKKIGMRFMTAPGDEYYEMLEGRLPDHGEPVDQLQARGILLDGSSVEGDKRLLLQIFSEMLMGPVFFEFIQRKGDDGFGPDSFKVLFESVERDQVRRGVLTAD is 66
